- ASSAY SUMMARY: Stability test of compounds in solutions at different pH values
- DETAILS: buffered saline solution pH 4.0, 21 h
Short version: Content reduction (%) at least 0.9% is yes, less is no.

Study these solved cases before continuing.
COMPOUND	ASSIGNED CATEGORY
CC(C)C(=O)OCn1c(=O)ccn([C@@H]2O[C@](F)(COC(=O)C(C)C)[C@@H](O)[C@H]2O)c1=O [Compound X51]	yes
CCC(CC)C(=O)OCn1c(=O)ccn([C@@H]2O[C@](F)(COC(=O)C(C)C)[C@@H](O)[C@H]2O)c1=O [Compound X52]	yes
CC(C)C(=O)OC[C@@]1(F)O[C@@H](n2ccc(=O)n(COC(=O)C3CCCCC3)c2=O)[C@H](O)[C@@H]1O [Compound X55]	yes

(Q) Quick check: does CC(=O)OC[C@@]1(F)O[C@@H](n2ccc(=O)n(COC(=O)c3cccnc3)c2=O)[C@H](OC(C)=O)[C@@H]1OC(C)=O.Cl [X219 hydrochloride] have Content reduction (%) greater than or equal to 0.9%?
(A) no

(Q) # check: Content reduction (%) of CC(=O)OC[C@@]1(F)O[C@@H](n2ccc(=O)n(COC(=O)c3cccnc3)c2=O)[C@H](OC(C)=O)[C@@H]1OC(C)=O [Compound X219] is greater than or equal to 0.9%
(A) yes

(Q) Kindly determine if Content reduction (%) recorded for CC(C)C(=O)OC[C@@]1(F)O[C@@H](n2ccc(=O)n(COC(=O)c3cccnc3)c2=O)[C@H](OC(=O)C(C)C)[C@@H]1OC(=O)C(C)C [Compound X206] is above or exactly 0.9%.
(A) no

(Q) I'd appreciate it if you could say whether O=c1ccn([C@@H]2O[C@](F)(CO)[C@@H](O)[C@H]2O)c(=O)[nH]1 [Compound X28-1, reference compound] has Content reduction (%) at least equal to 0.9%.
(A) yes

====

- ASSAY SUMMARY: Pharmacokinetic evaluation in rats (Test Example 1)
- Assay type: in vivo
- DETAILS: rat; nucleoside X28-1 in plasma; male SD rats; single iv 10.0 mg/kg
ASSAY METRIC: half-life (h)
Give bare numbers, in h.

(Q) Query: half-life; subject: O=c1ccn([C@@H]2O[C@](F)(CO)[C@@H](O)[C@H]2O)c(=O)[nH]1 [Compound X28-1, reference compound]
(A) 6.9

====

- ASSAY SUMMARY: Stability test of compounds in solutions at different pH values
- DETAILS: buffered saline solution pH 6.8, 12 h
Provide the recorded Content reduction (%) for the entries that follow.
Answers are plain numbers, in %.

COMPOUND	VALUE REPORTED
CC(=O)OC[C@@]1(F)O[C@@H](n2ccc(=O)n(COC(=O)c3cccnc3)c2=O)[C@H](OC(C)=O)[C@@H]1OC(C)=O.Cl [X219 hydrochloride]	4.10
CC(=O)OC[C@@]1(F)O[C@@H](n2ccc(=O)n(COC(=O)c3cccnc3)c2=O)[C@H](OC(C)=O)[C@@H]1OC(C)=O	3.96

Return reported Content reduction (%) values for all items listed beneath this line.
1. CC(C)C(=O)OCn1c(=O)ccn([C@@H]2O[C@](F)(COC(=O)C(C)C)[C@@H](O)[C@H]2O)c1=O
2. CCC(CC)C(=O)OCn1c(=O)ccn([C@@H]2O[C@](F)(COC(=O)C(C)C)[C@@H](O)[C@H]2O)c1=O
3. CC(C)C(=O)OC[C@@]1(F)O[C@@H](n2ccc(=O)n(COC(=O)C3CCCCC3)c2=O)[C@H](O)[C@@H]1O
4. CC(C)C(=O)OC[C@@]1(F)O[C@@H](n2ccc(=O)n(COC(=O)c3cccnc3)c2=O)[C@H](OC(=O)C(C)C)[C@@H]1OC(=O)C(C)C
5. O=c1ccn([C@@H]2O[C@](F)(CO)[C@@H](O)[C@H]2O)c(=O)[nH]1 [Compound X28-1, reference compound]

(A)
[3.8, 4.3, 4.4, 4.06, 28.3]
